Biological target: Muscarinic acetylcholine receptor M1 (Homo sapiens) (UniProt P11229)
Sequence (P11229 whole entry): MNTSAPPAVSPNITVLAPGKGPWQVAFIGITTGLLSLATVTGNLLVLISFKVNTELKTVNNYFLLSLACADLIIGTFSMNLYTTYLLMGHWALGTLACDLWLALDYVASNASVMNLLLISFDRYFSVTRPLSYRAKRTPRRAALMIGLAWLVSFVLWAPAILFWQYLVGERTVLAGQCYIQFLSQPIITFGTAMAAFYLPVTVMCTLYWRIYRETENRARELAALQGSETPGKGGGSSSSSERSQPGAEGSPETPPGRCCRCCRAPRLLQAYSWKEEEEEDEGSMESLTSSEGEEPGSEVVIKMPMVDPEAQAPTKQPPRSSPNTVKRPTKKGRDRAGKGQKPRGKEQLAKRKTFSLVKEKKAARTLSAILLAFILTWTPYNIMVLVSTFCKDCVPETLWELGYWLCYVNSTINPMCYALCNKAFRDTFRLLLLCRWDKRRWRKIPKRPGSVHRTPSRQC
Test: Positive allosteric modulator activity at human muscarinic receptor subtype 1 expressed in CHO-K1 cells at 30 uM by calcium mobilization assay relative to acetylcholine
Type: functional, cell-based
quantity_name: Emax (%)
Give bare numbers, in %.

Some compounds with known Emax results, for comparison:
{"structure_smiles": "O=c1c2cn(Cc3ccccc3)c3ccccc3c-2nn1Cc1ccncc1", "Emax / %": 54}
{"structure_smiles": "Cn1nc2c3ccccc3n(Cc3ccccc3)cc-2c1=O", "Emax / %": 48}
{"structure_smiles": "O=c1c2cn(Cc3ccccc3)c3ccccc3c-2nn1Cc1ccccn1", "Emax / %": 59}

Input line: Entry O=c1c2cn(Cc3ccc(-n4cccn4)cc3)c3ccccc3c-2nn1Cc1ccccc1 : reported Emax = ?
Output line: 50
